Origin of values: patent US6645957B2

So I've got a bunch of compounds here, and I need their inhibition at 1 µM values.
Test system: production of IgE antibody
Test: Evaluation of inhibitory effect on production of IgE antibody (mouse splenic B cells, LPS + IL-4, ELISA)
Format: cell-based
Conditions: B-cell, 168 h; test agent 10^−6 M; mouse (Balb/C) B cells cultured with LPS then mouse IL-4 for 7 days; IgE in culture supernatant by ELISA
Where a name gives a salt, the structure may show the parent alone.
Supply the numeric figure in %, leaving out any unit text.

Using the record for CC(C)(C)c1ccc(/C=C/C=C/C(=O)N2CCN(CCCCCCCCN3CCN(C(=O)/C=C/C=C/c4ccc(C(C)(C)C)cc4)CC3)CC2)cc1 [Example 12, Dihydrochloride] , report its inhibition at 1 µM.
90

Reported inhibition at 1 µM, compound COc1cc(-c2ccc(C(=O)N3CCCN(CCCN4CCCN(C(=O)c5ccc(-c6cc(OC)c(OC)c(OC)c6)cc5)CC4)CC3)cc2)cc(OC)c1OC : ____
85

Entry CSc1ncccc1/C=C/C=C/C(=O)N1CCN(CCCCCCCCN2CCN(C(=O)/C=C/C=C/c3cccnc3SC)CC2)CC1 [Example 13, Dihydrochloride] : reported inhibition at 1 µM = ?
95

Given the entry O=C(/C=C/c1ccc2ccccc2c1)N1CCN(Cc2cccc(CN3CCN(C(=O)/C=C/c4ccc5ccccc5c4)CC3)n2)CC1 , report its measured inhibition at 1 µM.
75

Requested field: inhibition at 1 µM. Item: COc1cc2ccc(/C=C/C(=O)N3CCC(CN(C)CC4CCN(C(=O)/C=C/c5ccc6cc(OC)c(OC)c(OC)c6c5)CC4)CC3)cc2c(OC)c1OC [Example 36, Hydrochloride]
60

Entry COc1cc(-c2ccc(C(=O)N3CCN(CCCN4CCN(C(=O)c5ccc(-c6cc(OC)c(OC)c(OC)c6)cc5)CC4)CC3)cc2)cc(OC)c1OC [Example 5, Dihydrochloride] : reported inhibition at 1 µM = ?
95

Look up inhibition at 1 µM for this compound: COc1cc(-c2cc(C(=O)N3CCC(CC(CC4CCN(C(=O)c5ccc(C)c(-c6cc(OC)c(OC)c(OC)c6)c5)CC4)N(C)C)CC3)ccc2C)cc(OC)c1OC [Example 30, Hydrochloride]
100

Form field: reported inhibition at 1 µM of COc1cc(C#C/C=C/C(=O)N2CCC(CC(CC3CCN(C(=O)/C=C/C#Cc4cc(OC)c(OC)c(OC)c4)CC3)CN(C)C)CC2)cc(OC)c1OC [Example 33, Hydrochloride]
100

Please report the recorded inhibition at 1 µM for COc1cc(/C=C/C=C/C(=O)N2CCN(CCCN3CCN(C(=O)/C=C/C=C/c4cc(OC)c(OC)c(OC)c4)CC3)CC2)cc(OC)c1OC [Example 3, Dihydrochloride] .
100

Which measured inhibition at 1 µM value corresponds to COc1cc(-c2ccc(C(=O)N3CCN(Cc4ccc(CN5CCN(C(=O)c6ccc(-c7cc(OC)c(OC)c(OC)c7)cc6)CC5)cc4)CC3)cc2)cc(OC)c1OC [Example 16, Dihydrochloride] ?
65

Field request: inhibition at 1 µM | item: COc1cc(-c2ccc(C(=O)N3CCC(N(C)CCN(C)C4CCN(C(=O)c5ccc(-c6cc(OC)c(OC)c(OC)c6)cc5)CC4)CC3)cc2)cc(OC)c1OC [Example 37, Dihydrochloride]
100

Quick one: inhibition at 1 µM of COc1cc(C#C/C=C/C(=O)N2CCN(CCCN3CCN(C(=O)/C=C/C#Cc4cc(OC)c(OC)c(OC)c4)CC3)CC2)cc(OC)c1OC [Example 6, Dihydrochloride] ?
95

// returns reported inhibition at 1 µM for input COc1cc2c(cc1OC)C(C)(C)C(/C=C/C(=O)N1CCC(CCCC3CCN(C(=O)/C=C/C4=Cc5cc(OC)c(OC)cc5C4(C)C)CC3)CC1)=C2
100

Which inhibition at 1 µM value belongs to COc1ccc(C(=O)N2CCC(CN3CCN(CC4CCN(C(=O)c5ccc(OC)c(-c6cc(OC)c(OC)c(OC)c6)c5)CC4)CC3)CC2)cc1-c1cc(OC)c(OC)c(OC)c1 [Example 40, Dihydrochloride] ?
75
